- Measurement target: T1, human PD-1 (construct not stated) (human, UniProt Q15116 25-167, limits assumed)
- T1 construct: also called PD-1 analyte
- T1 sequence (Q15116 25-167 limits assumed): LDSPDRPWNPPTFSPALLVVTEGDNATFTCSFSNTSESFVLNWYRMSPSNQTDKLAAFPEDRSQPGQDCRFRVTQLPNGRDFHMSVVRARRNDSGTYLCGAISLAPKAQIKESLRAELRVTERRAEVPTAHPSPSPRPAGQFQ
- Protocol text: Biacore, antibody captured, PD-1 analyte
Documented Ka across a set of binders
Kindly provide the numeric value in M⁻¹ only, without the unit symbol.

{"Binder": "10D1 murine anti-PD-1 antibody (antibody, V domains shown, Purified hybridoma antibody; also called 10D1-mIgG1) VH: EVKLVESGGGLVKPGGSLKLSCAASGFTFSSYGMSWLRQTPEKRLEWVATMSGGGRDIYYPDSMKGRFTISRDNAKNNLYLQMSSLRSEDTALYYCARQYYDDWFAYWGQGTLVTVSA VL: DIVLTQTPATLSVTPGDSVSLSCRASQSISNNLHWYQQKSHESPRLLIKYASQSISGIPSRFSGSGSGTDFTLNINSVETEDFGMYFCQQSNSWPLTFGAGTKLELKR", "Value units": "M⁻¹", "Numeric value": "1.6e+10"}

Next up:
Query: Tell me its Ka given 6E1 murine anti-PD-1 antibody (antibody, V domains shown, Purified hybridoma antibody; also called 6E1-mIgG1) VH: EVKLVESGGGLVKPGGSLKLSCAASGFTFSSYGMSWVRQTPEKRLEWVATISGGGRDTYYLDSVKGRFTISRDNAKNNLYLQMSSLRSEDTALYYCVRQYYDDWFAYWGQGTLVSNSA VL: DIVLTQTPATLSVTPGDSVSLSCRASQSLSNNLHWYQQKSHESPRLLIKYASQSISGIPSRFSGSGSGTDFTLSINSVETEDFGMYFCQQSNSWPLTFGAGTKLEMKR as the entry.
Result: 3.92e+10

These measurements were taken from patent US20170267762A1.
